Reported Maximum % Activity (95% CI) values for the following compounds.
# TESTED SYSTEM: recombinant WT VCP (Mus musculus)
# Sequence (Q01853 whole entry): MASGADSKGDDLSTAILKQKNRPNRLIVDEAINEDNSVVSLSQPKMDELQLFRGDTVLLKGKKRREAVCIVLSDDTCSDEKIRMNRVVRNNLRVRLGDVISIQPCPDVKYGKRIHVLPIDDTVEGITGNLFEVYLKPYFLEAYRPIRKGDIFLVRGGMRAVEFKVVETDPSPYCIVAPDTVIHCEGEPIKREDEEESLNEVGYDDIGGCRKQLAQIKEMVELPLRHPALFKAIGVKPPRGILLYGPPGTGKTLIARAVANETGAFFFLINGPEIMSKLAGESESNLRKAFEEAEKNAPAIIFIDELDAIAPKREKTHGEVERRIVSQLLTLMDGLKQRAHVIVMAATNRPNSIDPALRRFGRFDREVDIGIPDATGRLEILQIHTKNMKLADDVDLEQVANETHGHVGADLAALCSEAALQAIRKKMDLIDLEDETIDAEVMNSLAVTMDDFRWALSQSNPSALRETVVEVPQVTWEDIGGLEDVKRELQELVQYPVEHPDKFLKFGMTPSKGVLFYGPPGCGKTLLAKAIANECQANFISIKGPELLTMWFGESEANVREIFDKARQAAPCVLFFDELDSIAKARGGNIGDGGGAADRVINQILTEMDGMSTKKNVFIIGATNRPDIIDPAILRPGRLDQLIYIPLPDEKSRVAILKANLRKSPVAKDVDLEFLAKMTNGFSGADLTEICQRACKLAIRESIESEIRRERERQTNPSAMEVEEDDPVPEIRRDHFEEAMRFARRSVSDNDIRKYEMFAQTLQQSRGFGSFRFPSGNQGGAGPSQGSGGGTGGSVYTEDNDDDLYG
# Type: biochemical
# MEASUREMENT CONTEXT: WT VCP; 50 nM VCP, 62.5 μM ATP, Kinase-Glo

Some solved cases for reference:
(Q) So what's the measured Maximum % Activity (95% CI) for this one? `O=C(OCCN(C1=NS(=O)(=O)c2ccccc21)c1ccc(Cl)cc1)c1ccco1`
(A) 204.0 (189.2, 223.3) %

(Q) So what's the measured Maximum % Activity (95% CI) for this one? `COCCNC(=O)NC(=O)COC(=O)c1cc([N+](=O)[O-])ccc1Sc1nc(C)cs1`
(A) 197.4 (189.8, 206.1) %

(Q) So what's the measured Maximum % Activity (95% CI) for this one? `Clc1ccc2[nH]c3c(N4CCC5(CC4)OCCO5)ncnc3c2c1`
(A) 150.3 (146.6, 154.3) %

// switching to the query compound
(Q) So what's the measured Maximum % Activity (95% CI) for this one? `O=C(CSc1nc2ccccc2c(=O)n1NC(=O)c1ccccc1)c1ccc(Cl)cc1`
(A) 139.0 (131.9, 149.0) %
